B1: Probable E3 ubiquitin-protein ligase MID2, residues 191 to 235; numbered along this chain, Q9UJV3 (parent)
chain: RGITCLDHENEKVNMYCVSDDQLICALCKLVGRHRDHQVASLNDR

Variants of: B1
Test: abundance fitness (aPCA) (normalised: wild type 0, dead -1); higher = more abundant; growth selection in yeast, the domain comes from the species named
Details: Homo sapiens
endpoint name: abundance fitness
Reply with the value as a number alone.

Solved entries:
sequence record	abundance fitness
RGITCLDHENEKVNMYCVSDDQLICALCKLVERHRDHQVASLNDR [G32E]	-0.248
RGITCLQHENEKVNMYCVSDDQLICALCKLVGRHRDHQVASLNDR [D7Q]	-0.147
RGITCLDHENEKVNMYCVSDDQLICALCKLVGRHRDHQVDSLNDR [A40D]	0.043
RGITCLDHENEKVNMYCVSDDQLICALCKLVGRHRDHFVASLNDR [Q38F]	-0.69
RGITCLDHENEKVNMYCVSDDQLICALCKLVGRHRDHQVASDNDR [L42D]	-0.046
RGITCLDHENEKVNMYCVSDDQLICALCKLVGRHRGHQVASLNDR [D36G]	-0.098

Req: For RGITCLDHENEKVNMYRVSDDQLICALCKLVGRHRDHQVASLNDR [C17R] , write its abundance fitness.
Resp: -0.304

Req: Write down abundance fitness measured for item RGITCLDHENEKVNMYCVSDDQLICALCKLVMRHRDHQVASLNDR [G32M]
Resp: -0.899

Req: Answer with reported abundance fitness of RGITCLDHENEKVNMYCVSDDQDICALCKLVGRHRDHQVASLNDR [L23D]
Resp: 0.064

Req: Provide abundance fitness value for the following variant: RGITCLDHENEKVNMYCVSDDQLICALCKLVGRHRDHQWASLNDR [V39W]
Resp: -0.23

Req: Using known records, supply abundance fitness for RGITCLDHENEKVNMYEVSDDQLICALCKLVGRHRDHQVASLNDR [C17E]
Resp: -0.163

# credit: the Human Domainome abundance scans (Beltran et al. 2025)
